# ASSAY_SYSTEM: hα4 and β1 integrins (Homo sapiens, UniProt P05556+P13612)
# Sequence (P13612 34-1032): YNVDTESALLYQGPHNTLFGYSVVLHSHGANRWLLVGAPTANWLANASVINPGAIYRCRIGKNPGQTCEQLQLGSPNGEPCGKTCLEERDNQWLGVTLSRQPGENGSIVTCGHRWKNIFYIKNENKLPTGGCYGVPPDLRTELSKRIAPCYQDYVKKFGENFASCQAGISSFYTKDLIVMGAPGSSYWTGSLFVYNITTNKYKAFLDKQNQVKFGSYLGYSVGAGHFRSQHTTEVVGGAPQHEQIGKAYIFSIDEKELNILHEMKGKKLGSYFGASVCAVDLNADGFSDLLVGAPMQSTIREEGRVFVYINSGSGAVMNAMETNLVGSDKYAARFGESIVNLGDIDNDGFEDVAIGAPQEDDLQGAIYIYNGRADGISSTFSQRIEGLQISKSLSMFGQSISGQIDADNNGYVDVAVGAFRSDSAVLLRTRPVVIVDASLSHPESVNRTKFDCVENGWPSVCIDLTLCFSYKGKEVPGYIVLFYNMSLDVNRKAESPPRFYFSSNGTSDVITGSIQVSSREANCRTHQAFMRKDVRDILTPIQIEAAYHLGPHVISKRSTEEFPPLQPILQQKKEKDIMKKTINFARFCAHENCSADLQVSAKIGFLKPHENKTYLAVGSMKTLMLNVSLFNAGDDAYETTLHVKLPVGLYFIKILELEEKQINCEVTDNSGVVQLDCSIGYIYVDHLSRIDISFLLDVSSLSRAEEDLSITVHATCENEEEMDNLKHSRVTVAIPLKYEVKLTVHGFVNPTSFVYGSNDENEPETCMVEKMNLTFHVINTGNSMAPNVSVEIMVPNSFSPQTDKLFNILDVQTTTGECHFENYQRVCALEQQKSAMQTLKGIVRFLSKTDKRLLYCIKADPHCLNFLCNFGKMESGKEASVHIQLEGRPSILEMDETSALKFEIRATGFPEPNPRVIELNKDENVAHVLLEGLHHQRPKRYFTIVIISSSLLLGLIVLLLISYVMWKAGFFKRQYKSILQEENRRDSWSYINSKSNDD
# Sequence (P05556 21-798): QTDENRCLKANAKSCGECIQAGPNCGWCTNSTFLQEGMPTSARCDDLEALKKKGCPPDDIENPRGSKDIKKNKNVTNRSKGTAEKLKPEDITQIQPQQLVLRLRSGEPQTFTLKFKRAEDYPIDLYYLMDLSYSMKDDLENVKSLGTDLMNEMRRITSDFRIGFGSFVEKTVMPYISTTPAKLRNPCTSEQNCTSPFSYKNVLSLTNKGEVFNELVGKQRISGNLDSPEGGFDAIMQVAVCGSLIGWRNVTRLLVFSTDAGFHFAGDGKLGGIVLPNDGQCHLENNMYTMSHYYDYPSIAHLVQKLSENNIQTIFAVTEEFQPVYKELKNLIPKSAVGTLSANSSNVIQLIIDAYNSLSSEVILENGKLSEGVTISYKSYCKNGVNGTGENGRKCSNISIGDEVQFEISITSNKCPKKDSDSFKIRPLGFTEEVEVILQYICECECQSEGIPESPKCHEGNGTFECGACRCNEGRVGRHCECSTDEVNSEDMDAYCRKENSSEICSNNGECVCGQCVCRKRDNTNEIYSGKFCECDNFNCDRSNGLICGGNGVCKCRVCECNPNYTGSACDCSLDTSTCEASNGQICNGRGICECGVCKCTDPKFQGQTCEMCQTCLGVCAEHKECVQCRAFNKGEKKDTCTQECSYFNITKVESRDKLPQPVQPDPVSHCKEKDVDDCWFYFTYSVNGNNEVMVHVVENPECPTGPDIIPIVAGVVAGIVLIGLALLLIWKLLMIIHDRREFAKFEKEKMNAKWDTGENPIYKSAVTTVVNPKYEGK
# EXPERIMENT_DESCRIPTION: In vitro inhibition of binding between CHO cells expressing hα4 and β1 integrins and Eu3+-hVCAM-1 D1D7-IgG
# ASSAY_CONDITIONS: CHO cells expressing hα4 and β1 integrins; Eu3+-hVCAM-1 D1D7-IgG ligand; without HSA

TEST_SMILES	Ki
O=C(Nc1cc(F)c(CC(=O)N2C[C@@H](N3CCC(Oc4ccccc4)CC3)C[C@H]2CO[C@H]2CC[C@H](C(=O)O)CC2)cc1Cl)c1csc2ccccc12	1.2 nM
C[C@@H]1CN([C@H]2C[C@@H](CO[C@H]3CC[C@H](C(=O)O)CC3)N(C(=O)Cc3cc(Cl)c(NC(=O)c4cn(C)c5ccccc45)cc3F)C2)C[C@H](C)O1	3 nM
C[C@@H]1CN([C@H]2C[C@@H](CO[C@H]3CC[C@H](C(=O)O)CC3)N(C(=O)Cc3ccc(NC(=O)c4nn(C)c5ccccc45)c(Cl)c3)C2)C[C@H](C)O1	1.5 nM
CCO[C@H]1CCN([C@H]2C[C@@H](CO[C@H]3CC[C@H](C(=O)O)CC3)N(C(=O)Cc3cc(Cl)c(NC(=O)c4cn(C)c5ccccc45)cc3Cl)C2)C1	5.9 nM
Cn1cc(C(=O)Nc2cc(Cl)c(CC(=O)N3C[C@@H](N4CCCCC4)C[C@H]3CO[C@H]3CC[C@H](C(=O)O)CC3)cc2Cl)c2ccccc21	3.9 nM

---

solubility listing for selected compounds.
# EXPERIMENT_DESCRIPTION: Solubility test in first and second liquid of the Japanese Pharmacopoeia
# ASSAY_CONDITIONS: first liquid of the Japanese Pharmacopoeia (JP1), pH 1.2, simulated gastric fluid, Solubility, First liquid of Japanese Pharmacopoeia (μg/mL), JP1, pH=1.2

TEST_SMILES	solubility
COCC1CCN([C@H]2C[C@@H](CO[C@H]3CC[C@H](C(=O)O)CC3)N(C(=O)Cc3cc(Cl)c(NC(=O)c4csc5ccccc45)cc3F)C2)CC1	> 2000 µg/mL
Cn1cc(C(=O)Nc2cc(Cl)c(CC(=O)N3C[C@@H](N4CCCOCC4)C[C@H]3CO[C@H]3CC[C@H](C(=O)O)CC3)cc2Cl)c2ccccc21	> 2000 µg/mL
CO[C@@H]1CCCN([C@H]2C[C@@H](CO[C@H]3CC[C@H](C(=O)O)CC3)N(C(=O)Cc3cc(Cl)c(NC(=O)c4csc5ccccc45)cc3F)C2)C1	> 2000 µg/mL

---

# ASSAY_SYSTEM: hα4 and β1 integrins (Homo sapiens, UniProt P05556+P13612)
# EXPERIMENT_DESCRIPTION: In vitro inhibition of binding between CHO cells expressing hα4 and β1 integrins and Eu3+-hVCAM-1 D1D7-IgG
# ASSAY_CONDITIONS: in the presence of 3% human serum albumin (HSA final concentration 3%)
pIC50: −log10 of the molar value.
pIC50 listing for selected molecules.

TEST_SMILES	pIC50
O=C(Nc1cc(F)c(CC(=O)N2C[C@@H](N3CC(CF)C3)C[C@H]2CO[C@H]2CC[C@H](C(=O)O)CC2)cc1Cl)c1coc2ccccc12	7.19
Cn1cc(C(=O)Nc2cc(F)c(CC(=O)N3C[C@@H](N4CCN(C5(C)CC5)CC4)C[C@H]3CO[C@H]3CC[C@H](C(=O)O)CC3)cc2Cl)c2ccccc21	7.64
O=C(Nc1cc(Cl)c(CC(=O)N2C[C@@H](N3CCN(CC(F)(F)F)CC3)C[C@H]2CO[C@H]2CC[C@H](C(=O)O)CC2)cc1Cl)c1c[nH]c2ccccc12	8.72
O=C(Nc1cc(F)c(CC(=O)N2C[C@@H](N3CCCOCC3)C[C@H]2CO[C@H]2CC[C@H](C(=O)O)CC2)cc1Cl)c1coc2ccccc12	8.03
CCOC[C@@H]1CCCN1[C@H]1C[C@@H](CO[C@H]2CC[C@H](C(=O)O)CC2)N(C(=O)Cc2cc(Cl)c(NC(=O)c3csc4ccccc34)cc2Cl)C1	7.42
C[C@@H]1CN([C@H]2C[C@@H](CO[C@H]3CC[C@H](C(=O)O)CC3)N(C(=O)Cc3cc(Cl)c(NC(=O)c4cn(C)c5ccccc45)cc3Cl)C2)C[C@H](C)O1	7.70

---

# ASSAY_SYSTEM: hα4 and β1 integrins (Homo sapiens, UniProt P05556+P13612)
# EXPERIMENT_DESCRIPTION: In vitro inhibition of binding between CHO cells expressing hα4 and β1 integrins and Eu3+-hVCAM-1 D1D7-IgG
# ASSAY_CONDITIONS: CHO cells expressing hα4 and β1 integrins; Eu3+-hVCAM-1 D1D7-IgG ligand; without HSA
Ki listing for selected molecules.

MOLECULE	ASSAY_SYSTEM	UNIT_ABBREVIATION	Ki
O=C(Nc1cc(F)c(CC(=O)N2C[C@@H](N3CCC3)C[C@H]2CO[C@H]2CC[C@H](C(=O)O)CC2)cc1Cl)c1csc2ccccc12 [Example 9]	hα4 and β1 integrins (Homo sapiens, UniProt P05556+P13612)	nM	1.4
O=C(Nc1ccc(CC(=O)N2C[C@@H](N3CCN(CC(F)(F)F)CC3)C[C@H]2CO[C@H]2CC[C@H](C(=O)O)CC2)cc1Cl)c1nccc2ccccc12 [Example 127]	hα4 and β1 integrins (Homo sapiens, UniProt P05556+P13612)	nM	9.6
CO[C@@H]1CN([C@H]2C[C@@H](CO[C@H]3CC[C@H](C(=O)O)CC3)N(C(=O)Cc3cc(Cl)c(NC(=O)c4coc5ccccc45)cc3Cl)C2)C[C@H]1OC [Example 65]	hα4 and β1 integrins (Homo sapiens, UniProt P05556+P13612)	nM	2.9
C[C@@H]1CN([C@H]2C[C@@H](CO[C@H]3CC[C@H](C(=O)O)CC3)N(C(=O)Cc3ccc(NC(=O)c4cn(C)c5ccccc45)c(Cl)c3)C2)C[C@H](C)O1 [Example 85]	hα4 and β1 integrins (Homo sapiens, UniProt P05556+P13612)	nM	2
CC1CN([C@H]2C[C@@H](CO[C@H]3CC[C@H](C(=O)O)CC3)N(C(=O)Cc3cc(Cl)c(NC(=O)c4cn(C)c5ccccc45)cc3Cl)C2)C1 [Example 10]	hα4 and β1 integrins (Homo sapiens, UniProt P05556+P13612)	nM	9.5
